experiment: yeast display, Sf9 membrane polyspecificity reagent, FACS + sequencing; frameworks hold sequencing errors

{"inputSequence": "QVQLVESGGGLVQAGGSLRLSCAASGSIFYHNSMGWYRQAPGKERELVAAITSGGSTHYADSVKGRFTISRDNAKNTVYLQMNSLKPEDTAVYYCNARDRRRTNLLDYWGQGTQVTVSS", "polyreactivity (PSR sort gate)": "low polyreactivity"}
{"inputSequence": "QVQLVESGGGLVQAGGSLRLSCAASGSIFPFYAMGWYRQAPGKERELVAAINYSAGSTYYADSVKGRFTISRDNAKYTVYLQMNSLKPEDTAVYYCAKEVSAYEMDYWGQGTQVTVSS", "polyreactivity (PSR sort gate)": "low polyreactivity"}
{"inputSequence": "QVQLVESGGGLVQAGGSLRLSCAASGGLFSVYAMGWYRQAPGKERELVASITVSGGSTSYADSVKGRFTISRDNAKNTVYLQMYSLKPEDTAVYYCNTDFAQAHTLSWYEDMDYWGQGTQVTVSS", "polyreactivity (PSR sort gate)": "low polyreactivity"}
{"inputSequence": "QVQLGESGGGLVQAGGSLRLSCAASGSIFSDYAMGWYRQAPGKERELVAAIRYRGGRTYYADSVKGRFTISRDNAKNTVYLQMNSLKPEDTAVYYCNADVIRRGGSRYSTGREFDYWGQGTQVTVSS", "polyreactivity (PSR sort gate)": "high polyreactivity"}
{"inputSequence": "QVQLVESGGGLVQAGGSLRLSCAASGITFSNYSMGWYRQAPGKERELVAAISKRGGSTYYADSVKGRFTISRDNAKNTVYLQMNSLKPEDTAVYYCAAAGVRVYVRSGLDYWGQGTQVTVSS", "polyreactivity (PSR sort gate)": "high polyreactivity"}
{"inputSequence": "QVQLVESGGGLVQAGGSLSLSCAASGSILAVNAMGWYRQAPGKERELVAAISSRGGSTSYADSVKGRFTISRDNAKNTVYLQMNSLKPEDTAVYYCAVRAVRRLRTSVPVRFYYWGQGTQVTVSS", "polyreactivity (PSR sort gate)": "high polyreactivity"}
{"inputSequence": "QVQHVESGGGLVQAGGSLRLSCAASGRTFFYNTMGWYRQAPGKERELVARITRGGSTYYADSVKGRFTISRDNAKNTVYLQMNSLKPEDTAVYYCAAGYWRGYLLYGFDYWGQGTQVTVSS", "polyreactivity (PSR sort gate)": "high polyreactivity"}
{"inputSequence": "QVQLVESGGGLVQAGGSLRLSCAASGIFDYYVMGWYRQAPGKERELVAAISKSDGSTYYADSVKGRFTISRDNAKNTVYLQMNSLKQEDTAVYYCNAKLYYNRMDYWGQGTQVTVSS", "polyreactivity (PSR sort gate)": "low polyreactivity"}
{"inputSequence": "QVQLVESGGGLVQAGGSLRLSCAASGFTFGYYAMGWYRQAPGKERELVAAINWSGGRTYYADSVKGRFTISRDNAKNTVYLQMNSLKPEDTAVYYCAASSRTKLYYWGQGTQVTVSS", "polyreactivity (PSR sort gate)": "high polyreactivity"}
{"inputSequence": "QVQLVESGGGLVQAGGSLRLSCAASGITFSRNAMGWYRQAPGNERELVATITSGCSTNYADSVKGRFTISRDNAKNNVYLQMNSLKPEDTAIYYCNAVWNTFISGRSYDYWGQGTQVTVSS", "polyreactivity (PSR sort gate)": "low polyreactivity"}
{"inputSequence": "QVQLVESGGGLVQAGGSLRLSCAASGSTFAVNVMGWYRQAPGKERELVATITYRDGRTYYADSVKGRFTISRDNAKNTVYLQMNSLKPEDTAVYYCAADDEYKQEAEMDSWGQGTQVTVSS", "polyreactivity (PSR sort gate)": "low polyreactivity"}
